Molecular target: T1, recombinant human activated Factor VII (FVIIa) (human, UniProt P08709 61-212; P08709 213-466, ten glutamate residues of the Gla domain may be gamma-carboxylated)
T1 construct: chains tethered by a disulfide bond; also called Factor VIIa; rFVIIa
T1 sequence 1: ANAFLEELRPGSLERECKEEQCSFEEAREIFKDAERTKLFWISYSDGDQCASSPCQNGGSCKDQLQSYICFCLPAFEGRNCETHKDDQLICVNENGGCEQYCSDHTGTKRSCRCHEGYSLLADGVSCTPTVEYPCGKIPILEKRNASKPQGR
T1 sequence 2: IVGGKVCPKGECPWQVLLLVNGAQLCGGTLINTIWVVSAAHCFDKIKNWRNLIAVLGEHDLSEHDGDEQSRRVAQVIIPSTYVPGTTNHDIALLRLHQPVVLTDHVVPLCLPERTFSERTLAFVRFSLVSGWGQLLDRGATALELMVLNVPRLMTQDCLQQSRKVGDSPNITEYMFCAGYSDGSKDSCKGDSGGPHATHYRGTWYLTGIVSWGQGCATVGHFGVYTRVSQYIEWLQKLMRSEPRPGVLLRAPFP
Experiment: BLI (Fortebio)
Experimental: All steps were performed in running buffer (20 mM HEPES buffer (pH 7.4), 150 mM NaCl, 5 mM CaCl2, 0.03% Tween 20, 1 mg/ml IgG-free BSA) at […] Antibodies were captured on anti-human tips (AHC, Fortebio) for 3 min at a concentration of 10 ug/ml. […] Following this, association was monitored for 3 min using four different concentrations of VIIa (25 nm, 50 nM, 100 nM, and 200 nM), followed by a 3 mi dissociation. Sensorgrams were analysed using Fortebio data analysis software.
pKd: −log10 of the molar value.
Answer NO if pKd is under 8, and YES if it is 8 or more.

Check this binder for pKd at or above 8: VH SEQ ID NO 634 / VL SEQ ID NO 478 (antibody, IgG4, V domains shown, humanized 11F2; IgG4 S228P/kappa) VH: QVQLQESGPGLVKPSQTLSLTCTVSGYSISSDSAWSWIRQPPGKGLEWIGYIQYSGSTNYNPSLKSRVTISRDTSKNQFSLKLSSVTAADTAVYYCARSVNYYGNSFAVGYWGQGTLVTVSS VL: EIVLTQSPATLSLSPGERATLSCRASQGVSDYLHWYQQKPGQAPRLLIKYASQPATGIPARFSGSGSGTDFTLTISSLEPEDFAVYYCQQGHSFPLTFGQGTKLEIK
YES

Continuing:
Entry VH SEQ ID NO 578 / VL SEQ ID NO 470 (antibody, IgG4, V domains shown, humanized 11F2; IgG4 S228P/kappa) VH: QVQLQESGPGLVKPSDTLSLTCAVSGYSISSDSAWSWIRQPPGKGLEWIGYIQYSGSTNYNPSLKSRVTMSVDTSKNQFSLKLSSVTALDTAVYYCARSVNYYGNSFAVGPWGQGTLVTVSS VL: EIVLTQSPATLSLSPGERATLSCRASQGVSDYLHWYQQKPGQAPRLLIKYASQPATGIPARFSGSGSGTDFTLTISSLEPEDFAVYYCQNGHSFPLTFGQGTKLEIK : is its pKd no less than 8?
NO

Does the binder VH SEQ ID NO 602 / VL SEQ ID NO 406 (antibody, IgG4, V domains shown, humanized 11F2; IgG4 S228P/kappa) VH: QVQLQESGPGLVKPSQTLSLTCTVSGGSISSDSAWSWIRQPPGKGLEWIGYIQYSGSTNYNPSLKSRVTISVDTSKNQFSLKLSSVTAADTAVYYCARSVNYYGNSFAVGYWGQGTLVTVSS VL: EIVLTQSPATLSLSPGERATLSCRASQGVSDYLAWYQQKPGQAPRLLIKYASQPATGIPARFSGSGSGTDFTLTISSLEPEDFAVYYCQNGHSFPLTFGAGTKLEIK have recorded pKd that is 8 or more?
NO

Textbook exercise: given the entry VH SEQ ID NO 594 / VL SEQ ID NO 342 (antibody, IgG4, V domains shown, humanized 11F2; IgG4 S228P/kappa) VH: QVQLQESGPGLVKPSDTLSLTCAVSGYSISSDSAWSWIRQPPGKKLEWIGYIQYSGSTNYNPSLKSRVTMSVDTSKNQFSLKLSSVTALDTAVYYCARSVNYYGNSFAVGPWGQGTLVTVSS VL: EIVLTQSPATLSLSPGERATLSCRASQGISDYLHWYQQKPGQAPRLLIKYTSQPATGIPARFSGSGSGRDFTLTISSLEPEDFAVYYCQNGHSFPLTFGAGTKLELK , state whether its pKd is greater than or equal to 8.
NO

Origin of the recorded values: patent US20220064329A1
